Just for reference, paper PMC6429183 is where these values come from.

system name: estrogen-related receptor alpha (ERRα) (Homo sapiens, UniProt P11474)
Sequence (P11474 whole entry): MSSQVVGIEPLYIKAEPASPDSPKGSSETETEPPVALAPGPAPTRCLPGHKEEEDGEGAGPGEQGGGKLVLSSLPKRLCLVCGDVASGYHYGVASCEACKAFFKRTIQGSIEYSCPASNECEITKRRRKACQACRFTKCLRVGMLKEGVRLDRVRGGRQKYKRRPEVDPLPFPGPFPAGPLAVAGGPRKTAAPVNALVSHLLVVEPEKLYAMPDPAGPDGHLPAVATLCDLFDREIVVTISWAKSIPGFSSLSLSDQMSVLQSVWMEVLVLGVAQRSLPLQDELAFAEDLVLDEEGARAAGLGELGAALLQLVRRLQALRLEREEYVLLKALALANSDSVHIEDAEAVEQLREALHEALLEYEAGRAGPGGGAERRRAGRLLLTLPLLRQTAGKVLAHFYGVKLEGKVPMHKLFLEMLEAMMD
measurement notes: ERR reporter (luciferase) antagonist qHTS assay, ERR-HEK293
particulars: follow-up screen; relative to XCT790 = −100%
Where a name gives a salt, the structure may show the parent alone.
measured attribute: ERR-HEK293 Follow-Up Efficacy (%)
Lab book: enter the figure in %, no units written.

>  <molecule>
CC[C@@]1(O)C(=O)OCc2c1cc1n(c2=O)Cc2c-1nc1ccccc1c2/C=N/OC(C)(C)C [Gimatecan]

>  <ERR-HEK293 Follow-Up Efficacy [%]>
−145

$$$$
>  <molecule>
COc1ccc2cc3[n+](cc2c1OC)CCc1cc2c(cc1-3)OCO2 [Berberine]

>  <ERR-HEK293 Follow-Up Efficacy [%]>
−92.0

$$$$
>  <molecule>
CC(C)C[C@H](NC(=O)[C@H](Cc1ccccc1)NC(=O)c1cnccn1)B(O)O [Bortezomib]

>  <ERR-HEK293 Follow-Up Efficacy [%]>
−125

$$$$
>  <molecule>
CC(C)C[C@H](NC(=O)[C@H](CCc1ccccc1)NC(=O)CN1CCOCC1)C(=O)N[C@@H](Cc1ccccc1)C(=O)N[C@@H](CC(C)C)C(=O)[C@@]1(C)CO1 [Carfilzomib]

>  <ERR-HEK293 Follow-Up Efficacy [%]>
−126

$$$$
>  <molecule>
CC[C@@]1(O)C(=O)OCc2c1cc1n(c2=O)Cc2cc3c(CN(C)C)c(O)ccc3nc2-1 [Topotecan hydrochloride]

>  <ERR-HEK293 Follow-Up Efficacy [%]>
−140

$$$$
>  <molecule>
O=c1[nH]c(=O)n([C@H]2C[C@H](O)[C@@H](CO)O2)cc1C(F)(F)F [Trifluridine]

>  <ERR-HEK293 Follow-Up Efficacy [%]>
−67.7

$$$$

Please look at the following molecule next.
input: Recorded ERR-HEK293 Follow-Up Efficacy of Cc1nc(N)nc(N)c1-c1ccc(Cl)c(Cl)c1 [Methodichlorophen] , please.
output: −104
